biological target: hENPP2 (UniProtKB/SwissProt Q13822) (Homo sapiens (Human), UniProt Q13822); experiment: hENPP2 biochemical assay, LPC as substrate; conditions: LPC (palmitoyl 16:0) as substrate
List of IC50 values.

- compound: "CCc1nc2ccc(N3CC(NC(=O)CN4CC(O)C4)C3)cn2c1N(C)c1nc(-c2ccc(F)cc2)cs1"
  IC50: "> 1 µM"
- compound: "CCc1nc2ccc(N3CC(NCC(=O)N4CC(O)C4)C3)cn2c1N(C)c1nc(-c2ccc(F)cc2)cs1"
  IC50: "0.1 to 0.5 µM"

Then there is this compound:
# input Need IC50 of CCc1nc2ccc(C3CCN(C(=O)OC(C)(C)C)CC3O)cn2c1N(C)c1nc(-c2ccc(F)cc2)cs1 (stereo not drawn) , thanks.
# output > 1 µM
